# key: entry, value: CYP1A1 induction (% of ITE ± SEM)
# Test system: AHR-dependent transcription of the CYP1A1 gene
# assay.info: CYP1A1 induction in mouse macrophages
# Format: cell-based
# measurement.parameters: 5 μM

compound | metric | result
COC(=O)c1cccc(C(=O)c2cn(C)c3ccccc23)n1 [Compound 13] | CYP1A1 induction (% of ITE ± SEM) | 50 ± 20 % of ITE
COc1cnc(C(=O)c2c[nH]c3ccccc23)cn1 [Compound 30] | CYP1A1 induction (% of ITE ± SEM) | 41 ± 3 % of ITE
COC(=O)c1cccc(C(=O)c2c[nH]c3cc(Cl)ccc23)n1 [Compound 16] | CYP1A1 induction (% of ITE ± SEM) | 122 ± 48 % of ITE
COc1cc(C(=O)c2c[nH]c3ccccc23)ccn1 [Compound 29] | CYP1A1 induction (% of ITE ± SEM) | 44 ± 2 % of ITE
COc1cccc(C(=O)c2n[nH]c3ccccc23)c1 [reference compound] | CYP1A1 induction (% of ITE ± SEM) | 27 ± 3 % of ITE
O=C(c1ccccn1)c1c[nH]c2ccccc12 [Compound 124, 1H-indol-3-yl(2-pyridyl)methanone] | CYP1A1 induction (% of ITE ± SEM) | 15 ± 6 % of ITE

Kindly note: AHR-dependent transcription of the CYP1A1 gene, O=C(c1cccc(-c2ccccc2)n1)c1c[nH]c2ccccc12 [Compound 113] , CYP1A1 induction (% of ITE ± SEM) value reported: 97 ± 9 % of ITE

Kindly note: AHR-dependent transcription of the CYP1A1 gene, COC(=O)c1cccc(C(=O)c2c[nH]c3ccccc23)n1 [Compound 10] , CYP1A1 induction (% of ITE ± SEM) value reported: 88 ± 38 % of ITE

Kindly note: AHR-dependent transcription of the CYP1A1 gene, COc1cccc(C(=O)c2c[nH]c3ccccc23)n1 [Compound 5] , CYP1A1 induction (% of ITE ± SEM) value reported: 101 ± 33 % of ITE

###

# key: entry, value: CYP1A1 induction (% of ITE ± SEM)
# System: AHR-dependent transcription of the CYP1A1 gene
# assay.info: CYP1A1 induction in human U937 cells
# Type: cell-based
# measurement.parameters: Human U937, 1 μM

Record summary for COc1cccc(C(=O)c2n[nH]c3ccccc23)c1 [reference compound] : reported CYP1A1 induction (% of ITE ± SEM) = 194 ± 18 % of ITE

###

# target: aryl hydrocarbon receptor (AHR) (Homo sapiens)
# assay.info: XRE-driven luciferase reporter assay, human HepG2
# measurement.parameters: XRE luciferase EC50 (footnote a), Human HepG2; EC50 defined as concentration induced 50% of Emax of ITE
pEC50: −log10 of the molar value.
So basically: pEC50 at 8 or higher? That is YES. Lower than 8? That is NO.

Reference set (2 entries):
compound | class.name
COc1cccc(C(=O)c2n[nH]c3ccccc23)c1 [reference compound] | NO
COC(=O)c1cccc(C(=O)c2c[nH]c3cc(Cl)ccc23)n1 | YES

Consider the record given below.
Ask: Does the reported pEC50 for O=C(c1cccc(Cl)n1)c1c[nH]c2ccccc12 fall at or above the 8 mark?
Reply: NO

###

# key: entry, value: CYP1A1 induction (% of ITE ± SEM)
# Tested on: AHR-dependent transcription of the CYP1A1 gene
# assay.info: CYP1A1 induction in mouse macrophages
# Assay type: cell-based
# measurement.parameters: 5 μM
# Experimental: Mouse macrophages were also used to test AHR-dependent transcription of the CYP1A1 gene in vivo. Finally, the activity of exemplary compounds of Formula (I) described herein was tested in the human […] cell line U937. The U937 cell line is derived from a patient with diffuse histiocytic lymphoma. Tables 2-4 summarize structure-activity relationship data collected for exemplary, non-limiting compounds of Formula (I) described herein.

Field: example entries. Status: answers known.
molecule | target | metric | result
COC(=O)c1ccc(C(=O)c2c[nH]c3ccccc23)cn1 | AHR-dependent transcription of the CYP1A1 gene | CYP1A1 induction (% of ITE ± SEM) | 65 ± 9 % of ITE
COC(=O)c1ccc(C(=O)c2c[nH]c3ccccc23)nc1 | AHR-dependent transcription of the CYP1A1 gene | CYP1A1 induction (% of ITE ± SEM) | 26 ± 10 % of ITE
COC(=O)c1cccc(C(=O)c2n[nH]c3ccccc23)c1 [reference compound] | AHR-dependent transcription of the CYP1A1 gene | CYP1A1 induction (% of ITE ± SEM) | 90 ± 2 % of ITE
O=C(OC1CCCCC1)c1cccc(C(=O)c2c[nH]c3ccccc23)n1 | AHR-dependent transcription of the CYP1A1 gene | CYP1A1 induction (% of ITE ± SEM) | 95 ± 7 % of ITE

Read the next record carefully.
Record summary for COC(=O)c1cccc(C(=O)c2c[nH]c3c4c(ccc23)CCC4)n1 : reported CYP1A1 induction (% of ITE ± SEM) = 118 ± 5 % of ITE

###

# target: aryl hydrocarbon receptor (AHR) (Homo sapiens, UniProt P35869)
# Sequence (P35869 11-848): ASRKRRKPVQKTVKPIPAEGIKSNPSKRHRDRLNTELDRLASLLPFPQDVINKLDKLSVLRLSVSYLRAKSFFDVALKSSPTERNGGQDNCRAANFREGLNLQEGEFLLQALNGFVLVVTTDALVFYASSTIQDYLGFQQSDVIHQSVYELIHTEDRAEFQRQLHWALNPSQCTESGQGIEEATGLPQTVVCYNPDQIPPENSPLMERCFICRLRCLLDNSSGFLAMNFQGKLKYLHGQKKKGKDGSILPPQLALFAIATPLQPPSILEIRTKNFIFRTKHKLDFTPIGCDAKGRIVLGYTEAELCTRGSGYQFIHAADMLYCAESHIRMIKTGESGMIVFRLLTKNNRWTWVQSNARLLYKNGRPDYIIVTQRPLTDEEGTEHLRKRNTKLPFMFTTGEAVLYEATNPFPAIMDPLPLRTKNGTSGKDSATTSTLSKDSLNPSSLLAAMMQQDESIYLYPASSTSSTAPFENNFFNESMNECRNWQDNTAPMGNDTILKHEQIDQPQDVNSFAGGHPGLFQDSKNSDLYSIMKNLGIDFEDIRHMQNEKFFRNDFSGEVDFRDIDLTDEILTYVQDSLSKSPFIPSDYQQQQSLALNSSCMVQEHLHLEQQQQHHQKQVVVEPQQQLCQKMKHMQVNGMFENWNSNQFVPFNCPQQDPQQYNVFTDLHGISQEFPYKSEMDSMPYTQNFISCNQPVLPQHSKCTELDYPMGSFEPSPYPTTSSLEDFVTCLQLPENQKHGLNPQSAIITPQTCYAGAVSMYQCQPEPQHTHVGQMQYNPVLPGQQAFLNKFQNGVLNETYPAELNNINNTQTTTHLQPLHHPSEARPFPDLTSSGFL
# assay.info: XRE-driven luciferase reporter assay, human HepG2
# measurement.parameters: Human HepG2; fold over vehicle
# key: entry, value: XRE luciferase Emax (fold)

compound | XRE luciferase Emax (fold)
CCOC(=O)c1cccc(C(=O)c2c[nH]c3ccccc23)n1 | 40 fold

Record summary for COC(=O)c1csc(C(=O)c2c[nH]c3ccccc23)n1 [ITE, reference compound] : reported XRE luciferase Emax (fold) = 63 fold

Record summary for COC(=O)c1cccc(C(=O)c2cn(C)c3ccccc23)n1 : reported XRE luciferase Emax (fold) = 55 fold

Record summary for COC(=O)c1cccc(C(=O)c2c[nH]c3ccc(OC)cc23)n1 : reported XRE luciferase Emax (fold) = 131 fold

###

# target: aryl hydrocarbon receptor (AHR) (Homo sapiens)
# assay.info: XRE-driven luciferase reporter assay, human HepG2
metric: IC50 (µM)
# value in µM; strip the unit string

Record summary for O=C(O)c1cccc(C(=O)c2c[nH]c3ccccc23)n1 [Compound 145] : reported IC50 = 0.64

###

# key: entry, value: CYP1A1 induction (% of ITE ± SEM)
# Tested on: AHR-dependent transcription of the CYP1A1 gene
# assay.info: CYP1A1 induction in mouse macrophages
# Type: cell-based
# measurement.parameters: 50 nM

Field: example entries. Status: answers known.
smiles.str | CYP1A1 induction (% of ITE ± SEM)
COC(=O)c1ccc(C(=O)c2c[nH]c3ccccc23)nc1 | 2 ± 1 % of ITE
O=C(c1cccc(C(F)(F)F)n1)c1c[nH]c2ccccc12 | 124 ± 5 % of ITE
COC(=O)c1cccc(C(=O)c2c[nH]c3ncccc23)n1 | 11 ± 4 % of ITE
COC(=O)c1cccc(C(=O)c2c[nH]c3cccc(Cl)c23)n1 | 141 ± 83 % of ITE

Record summary for O=C(O)c1cccc(C(=O)c2c[nH]c3ccccc23)n1 : reported CYP1A1 induction (% of ITE ± SEM) = 27 ± 17 % of ITE

###

# target: aryl hydrocarbon receptor (AHR) (Homo sapiens)
# assay.info: XRE-driven luciferase reporter assay, human HepG2
# measurement.parameters: XRE luciferase EC50, Human HepG2; least square curve fitting; >10,000 = does not reach 50% of Emax of ITE at 10 μM (highest concentration tested)
pEC50: −log10 of the molar value.
So basically: pEC50 at 7 or higher? That is Criterion met. Lower than 7? That is Criterion not met.

Reference set (3 entries):
compound | class.name
COC(=O)c1csc(C(=O)c2c[nH]c3ccccc23)n1 [ITE, reference compound] | Criterion met
COc1cccc(C(=O)c2c[nH]c3ccccc23)c1 | Criterion not met
CN(C)C(=O)c1cccc(C(=O)c2c[nH]c3ccccc23)n1 | Criterion not met

Ask: Does the reported pEC50 for CC(C)OC(=O)c1cccc(C(=O)c2c[nH]c3ccccc23)n1 fall at or above the 7 mark?
Reply: Criterion not met

Ask: Does the reported pEC50 for O=C(c1cccc(C(F)(F)F)n1)c1c[nH]c2ccccc12 fall at or above the 7 mark?
Reply: Criterion met

Ask: Does the reported pEC50 for COc1cc(C(=O)c2c[nH]c3ccccc23)ccn1 fall at or above the 7 mark?
Reply: Criterion not met

Ask: Does the reported pEC50 for CCOC(=O)c1cccc(C(=O)c2c[nH]c3ccccc23)n1 fall at or above the 7 mark?
Reply: Criterion not met

Ask: Does the reported pEC50 for O=C(c1ccccn1)c1c[nH]c2ccccc12 fall at or above the 7 mark?
Reply: Criterion not met

Ask: Does the reported pEC50 for COC(=O)c1cccc(C(=O)c2n[nH]c3ccccc23)c1 [reference compound] fall at or above the 7 mark?
Reply: Criterion not met

Ask: Does the reported pEC50 for COC(=O)c1ccc(C(=O)c2c[nH]c3ccccc23)nc1 fall at or above the 7 mark?
Reply: Criterion not met

Ask: Does the reported pEC50 for COC(=O)c1ccc(C(=O)c2c[nH]c3ccccc23)cn1 fall at or above the 7 mark?
Reply: Criterion not met

Ask: Does the reported pEC50 for COC(=O)c1cccc(C(=O)c2c[nH]c3c4c(ccc23)CCC4)n1 fall at or above the 7 mark?
Reply: Criterion met

Ask: Does the reported pEC50 for N#Cc1cccc(C(=O)c2c[nH]c3ccccc23)n1 fall at or above the 7 mark?
Reply: Criterion met

Ask: Does the reported pEC50 for COC(=O)c1cccc(C(=O)c2c[nH]c3c(Cl)cccc23)n1 fall at or above the 7 mark?
Reply: Criterion met

Ask: Does the reported pEC50 for COC(=O)c1cccc(C(=O)c2c[nH]c3cccc(Cl)c23)n1 fall at or above the 7 mark?
Reply: Criterion not met

Ask: Does the reported pEC50 for O=C(O)c1cccc(C(=O)c2c[nH]c3ccccc23)n1 fall at or above the 7 mark?
Reply: Criterion not met

Ask: Does the reported pEC50 for O=C(OC1CCCCC1)c1cccc(C(=O)c2c[nH]c3ccccc23)n1 fall at or above the 7 mark?
Reply: Criterion not met
